Assay: in vitro
Details: human, Caco-2, pH 7.4
Collected Papp B→A at 120 min, 3 μM values appear next to each entry.
MEASURED METRIC: Papp B→A at 120 min, 3 μM

INSERT INTO measurements (line_notation, measured) VALUES
  ('O=C(O)C1=C(CSc2cccc[n+]2[O-])CS[C@@H]2[C@H](NC(=O)/C(=N\Oc3ccccc3)c3ccco3)C(=O)N12', '< 0.28 ×10⁻⁶ cm/s'),
  ('O=C(Cc1cccs1)N[C@@H]1C(=O)N2C(C(=O)O)=C(CSc3cccc[n+]3[O-])CS[C@H]12', '< 0.03 ×10⁻⁶ cm/s'),
  ('CN(C)C(=S)SCC1=C(C(=O)O)N2C(=O)[C@@H](NC(=O)Cc3cccs3)[C@H]2SC1', '< 0.43 ×10⁻⁶ cm/s');
